B1: tRNA (parent)
chain: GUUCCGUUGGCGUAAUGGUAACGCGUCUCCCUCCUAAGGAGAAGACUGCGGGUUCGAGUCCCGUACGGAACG

# Variants of: B1
# METHOD DESCRIPTION: yeast fitness relative to wild type (ratio to wild type); higher = fitter; tRNA-Arg(CCU), competitive growth, 37 C, YPD
Fewer inactive variants are shown than the library holds.
Exercise: for every item that follows, state its recorded yeast fitness.
One number for each entry.

Look over these answered cases.
[in] Requested read-out: yeast fitness. Entry: GUUCUGUUGGCGUAAUGGUAACGCGUCUCCCUCCUAAGGAGAAGACUGGGGGUUCGAGUCCCGUACGGAACG [C5U C49G]
[out] 0.919

[in] Requested read-out: yeast fitness. Entry: GUUCCGUUGGCGUAAUGGUAACGCGUCUCCCUCCUAAGGAGAAGACCGCGGGUUCGCGUCCCGUACGGAACG [U47C A57C]
[out] 0.524

[in] Requested read-out: yeast fitness. Entry: GUUCCGGUGGCGUAAUGGUAACGCGUCUCCCUCCUAAGGAGAAGACUGCGGGUUGGAGUCCCGUACGGAACG [U7G C55G]
[out] 0.655

[in] Requested read-out: yeast fitness. Entry: GUUCCGUUGGCGUAAUGGUAACGCGUCUCCCUCCUAAGGAGAAAACUGCGGGUUCGACUCCCGUAUGGAACG [G44A G58C C66U]
[out] 0.667

[in] Requested read-out: yeast fitness. Entry: GUUCCGUUAGCGUAAUGGUAACGCGUCUCCCUCCUAAGGAGAAGACUGCGGGUUCGAGUCCCGUACGGGACG [G9A A69G]
[out] 0.953

Could you report yeast fitness for every entry in the following list?
1. GUUCCGUUGGCGUAAUGGUAACGCGUCUCCCUCCUGAGGAGAAGUCUGUGGGUUCGAGUCCCGUACGGAACG [A36G A45U C49U]
2. GUUCCGUUGGCGGAAUGGUAACGCGUCUCCCUCCUAAGGAGAAGACUGCGGGUUCAAGUCCCGUACGGAACG [U13G G56A]
3. GUUCCGUUGGCGUAAUGGUAACGCGUCUCACUCCUAAGGAGAGGACUGCCGGUUCGAGUCCCGUACGGAACG [C30A A43G G50C]

[out]
[0.882, 1.06, 0.767]

Could you report yeast fitness for every entry in the following list?
1. GUUCCGUUGGCGUAAUGGUAACGCGUCUCCCUCCUAAGGAGAAGACUGCGGGUUGAAGUCCCGUACGGAACG [C55G G56A]
2. GUUCCGUUGGCGUAAUGGUAACGCGUCUCCCUCCUAAGGAGAAGAUUGCGGGAUCGAGUCCCGUACGGAACG [C46U U53A]
3. GUUCCGUUGUCGUAAUGGUAACGCGUCUCCCUCCUAAGGAGUAGACUGCGGGUUCGAGUCCCGUACGGAACG [G10U A42U]

[out]
0.628
0.704
0.775

Could you report yeast fitness for every entry in the following list?
1. GUUCCGUUGGCGUAUUGGUAACGUGUCUCCCUCCUAAGGAGAAGACUGCGGGUUCGAGUCCCGUGCGGAACG [A15U C24U A65G]
2. GUUCCGUUGGCGUAAUGGUCACGCGUCUCCCUCCUAAGGAGAAGACUGCGGGUUCGAGUCCCGUACGAAACG [A20C G68A]
3. GUUCCGUAGGCGUAAUGAUAACGCAUCUCCCUUCUAAGGAGAAGACUGCGAGUUCAAGUCCCGUACGGAACG [U8A G18A G25A C33U G51A G56A]
4. GUUCCGUUGGCAUAAUGGUACCGCGUCUCCCUCCUAAGGAGAAGACUGCGGGUUCGAGUCCCGUACGGAUCG [G12A A21C A70U]
5. GUUCCGUCGGCGUAAUGGUAACGCGUCUCCCUCCUAAGGAGAAGACUGCGGGUUCGAGUCCCGUACGAAACG [U8C G68A]

[out]
0.53
0.843
0.614
0.563
0.741

Could you report yeast fitness for every entry in the following list?
1. GUUCCGUUGGCGUAAUGGUAACGCGUCUCCCUCCUAAGGAGCAGCCUACGGGUUCGAGUCCCGUACGGAGCG [A42C A45C G48A A70G]
2. GUUCCGUUGGCGUAAUUGUAACGCGUCUCCCUCCUAAGGAGAAGACUGCGGGUUCGAGUCCCGUACGGAACG [G17U]
3. GUUCCGUUCGCGUAAUGGUAACGCGUCUCCCUCCUAAGGAGAAGACUGCGGGUGCGAGUCCCGUACGGAACG [G9C U54G]
4. GUUCCGUUGGCGUAAUGGUAAUGCGUCUCCCUCCUAAGGAGAAGACUACGGGUUCGAGUCCCGUUCGGAACG [C22U G48A A65U]
5. GUUCCGUUGGCGUAAUGGUAACGCGCCUCCCUCCUAAGGAGAAGACUGCGGGUUCGAGUCCAGUACGGAACG [U26C C62A]
6. GUUCCGUUGGCGUAAUGGUAACGCGUCUCCGUCCCAAGGAGAAGAUUGCGGGUUCGAGUCCCGUACGGAACG [C31G U35C C46U]
7. GUUCCGUUGGCGUAAUGGUAACGCGUCUCCCUCCUAAGCAGAAGACUCCGGGUUCGAGUCCCGUACGGCACG [G39C G48C A69C]
8. GUUCCGUUGGCCUAAUGGUAACGCGUCUCCCUCCUAAGGAGAAGACUGUGGGUUCGAGUCCCGUACGGAUCG [G12C C49U A70U]

[out]
1. 0.632
2. 0.851
3. 0.605
4. 0.773
5. 0.762
6. 0.582
7. 0.57
8. 0.692
